# target under test: human PXR (Homo sapiens, UniProt O75469)
# Construct: host or cells: DPX2 (HepG2 stably transfected)
# Sequence (O75469 whole entry): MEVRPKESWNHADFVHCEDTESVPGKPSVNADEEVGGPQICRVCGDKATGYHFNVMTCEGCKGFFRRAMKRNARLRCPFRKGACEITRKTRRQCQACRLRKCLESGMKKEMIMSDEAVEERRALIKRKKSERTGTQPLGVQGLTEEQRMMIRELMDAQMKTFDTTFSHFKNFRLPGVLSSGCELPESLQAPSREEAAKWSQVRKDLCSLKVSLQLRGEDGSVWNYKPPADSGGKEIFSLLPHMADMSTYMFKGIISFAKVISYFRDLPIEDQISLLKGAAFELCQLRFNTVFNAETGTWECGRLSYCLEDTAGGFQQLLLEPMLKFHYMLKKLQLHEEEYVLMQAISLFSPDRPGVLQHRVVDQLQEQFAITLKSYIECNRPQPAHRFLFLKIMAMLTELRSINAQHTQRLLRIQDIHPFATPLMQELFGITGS
# assay summary: PXR induction assay in DPX2 cells (luciferase reporter)
# Format: cell-based
# measurement setup: compound concentration 0.123 µM

[
  {
    "molecule": "C[C@H]1COc2c(-c3nc(N[C@@H]4CCOC[C@H]4O)ncc3Cl)cc(F)c3nc(C(C)(C)O)n1c23 (single isomer, unassigned) [Isomer 1 with a retention time of 2.078 min]",
    "fold induction at 24 h, 0.123 µM": 0.87
  },
  {
    "molecule": "C[C@@H]1COc2c(-c3nc(N[C@@H]4CCOC[C@H]4O)ncc3Cl)cc(F)c3nc(C(C)(C)O)n1c23 (single isomer, unassigned) [Isomer 2 with a retention time of 1.887 min]",
    "fold induction at 24 h, 0.123 µM": 0.99
  }
]

FYI, the data here is from patent EP4567040A1.
